# Protocol description: in vivo
# Test context: mouse, in vivo, iv
MTD for assorted compounds

# Input smiles, Display unit, MTD
data = [
    ("COc1cccc2c1C(=O)c1c(O)c3c(c(O)c1C2=O)C[C@@](O)(C(=O)CO)C[C@@H]3O[C@H]1C[C@H](N2CCO[C@H](OC)C2)[C@H](O)[C@H](C)O1", "mg/kg", 0.09),
    ("COc1cccc2c1C(=O)c1c(O)c3c(c(O)c1C2=O)C[C@@](O)(C(=O)CO)C[C@@H]3O[C@H]1C[C@H](N2CCO[C@@H](OC)C2)[C@H](O)[C@H](C)O1", "mg/kg", 0.13),
]

###

# Protocol description: Effect on murine mammary carcinoma, iv and oral route
# Assay type: in vivo
# Test context: mouse, in vivo; po q4dx4 (oral every four days for four times); read-out: O.D. = Optimal Dose: maximally tollerated dose

# Molecule, MTD
measured = [
    ("COc1cccc2c1C(=O)c1c(O)c3c(c(O)c1C2=O)C[C@@](O)(C(=O)CO)C[C@@H]3O[C@H]1C[C@H](N2CCO[C@H](OC)C2)[C@H](O)[C@H](C)O1 [Compound A4]", "0.1 mg/kg"),
]

###

# Protocol description: in vivo
# Test context: mouse, in vivo, iv
Metric: MTD (mg/kg)

# Input smiles, Metric, Reported value
rows = [
    ("COc1cccc2c1C(=O)c1c(O)c3c(c(O)c1C2=O)C[C@@](O)(C(=O)CO)C[C@@H]3O[C@H]1C[C@H](N2CCO[C@H](OC)C2)[C@H](O)[C@H](C)O1", "MTD", 0.09),
]

###

# Protocol description: Effect on mammary human carcinoma (MX1), iv and oral route
# Assay type: in vivo
# Test context: in vivo; po q7dx3 (oral every seven days for three times); read-out: O.D. = Optimal Dose: maximally tollerated dose

# Molecule, MTD / mg/kg
rows = [
    ("COc1cccc2c1C(=O)c1c(O)c3c(c(O)c1C2=O)C[C@@](O)(C(=O)CO)C[C@@H]3O[C@H]1C[C@H](N2CCO[C@H](OC)C2)[C@H](O)[C@H](C)O1 [Compound A4]", 0.13),
]

###

# Protocol description: Effect on mammary human carcinoma (MX1), iv and oral route
# Format: in vivo
# Test context: in vivo; iv q7dx3 (iv every seven days for three times); read-out: O.D. = Optimal Dose: maximally tollerated dose
Metric: MTD

# Molecule, Metric, Reported value
data = [
    ("COc1cccc2c1C(=O)c1c(O)c3c(c(O)c1C2=O)C[C@@](O)(C(=O)CO)C[C@@H]3O[C@H]1C[C@H](N)[C@H](O)[C@H](C)O1 [Doxorubicin, doxorubicin]", "MTD", "6 mg/kg"),
    ("COc1cccc2c1C(=O)c1c(O)c3c(c(O)c1C2=O)C[C@@](O)(C(=O)CO)C[C@@H]3O[C@H]1C[C@H](N2CCO[C@H](OC)C2)[C@H](O)[C@H](C)O1 [Compound A4]", "MTD", "0.05 mg/kg"),
]
